Source of measurements: patent EP0162576A1

So I've got a bunch of compounds here, and I need their Potency (Isoprenaline = 1) values.
# TARGET OR TEST SYSTEM: β2-adrenoreceptors (Cavia porcellus, UniProt Q8K4Z4)
# Construct: from tissue; host or cells: isolated guinea-pig trachea (tracheal rings)
# Sequence (Q8K4Z4 whole entry): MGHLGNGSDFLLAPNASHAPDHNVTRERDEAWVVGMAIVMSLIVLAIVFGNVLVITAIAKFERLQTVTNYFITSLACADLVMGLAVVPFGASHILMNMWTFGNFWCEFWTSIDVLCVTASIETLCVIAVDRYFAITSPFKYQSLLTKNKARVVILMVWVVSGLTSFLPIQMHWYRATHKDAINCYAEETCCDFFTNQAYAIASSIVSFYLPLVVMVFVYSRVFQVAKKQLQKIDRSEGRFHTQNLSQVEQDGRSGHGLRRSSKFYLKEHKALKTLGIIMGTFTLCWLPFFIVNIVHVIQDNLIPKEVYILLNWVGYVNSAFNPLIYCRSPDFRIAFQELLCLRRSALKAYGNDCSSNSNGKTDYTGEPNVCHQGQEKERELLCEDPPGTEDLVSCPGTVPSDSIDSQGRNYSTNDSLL
# PROTOCOL DESCRIPTION: Guinea-pig tracheal strip preparation (relaxation of PGF2a-contracted trachea)
# Type: cell-based
# SETTINGS: equipotent concentration = EC50 test compound / EC50 isoprenaline; tracheal rings contracted with prostaglandin F2a (2.9x10^-6M), 37°
Give bare numbers.

CC(CCCCCOCCc1ccccc1)NCC(O)c1ccc(O)c(CCO)c1 (stereo not drawn) [Example 5]; 0.17
CC(CCCCCOCCc1ccccc1)NC[C@H](O)c1ccc(O)c(O)c1 (stereo partly drawn) [Example 8]; 0.4
CC(CCCCCOCCc1ccccc1)NCC(O)c1ccc(O)c2[nH]c(=O)ccc12 (stereo not drawn) [Example 6]; 0.16
COc1ccc(CCOCCCCCCNCC(O)c2ccc(O)c(O)c2)cc1 (stereo not drawn) [Example 17]; 0.6
CC(CCCCCOCCc1ccccc1)NCC(O)c1cc(O)cc(O)c1 (stereo not drawn) [Example 12]; 0.15

// query So what's the measured Potency (Isoprenaline = 1) for this one? CC(CCCCCOCCc1ccc(F)cc1)NCC(O)c1cc(O)cc(O)c1 (stereo not drawn) [Example 14]
// result 0.13
